Experiment: Chemical stability of the compound in pH 10 carbonate buffer assessed as compound remaining at room temperature after 1 week by HPLC analysis
Format: physicochemical
Settings: read-out: Stability
parameter: remaining at 168 h

Look up remaining at 168 h: Cc1cc(C)nc(N2C[C@H]3CN(C(=O)c4c(F)cccc4-n4nccn4)C[C@H]3C2)n1 101%

###

Assay: Volume of distribution at steady state in beagle dog at 10 mg/kg, po and 1 mg/kg, iv
Format: ADME, organism-based, Canis lupus familiaris
Conditions: in vivo, read-out: Vdss
parameter: Vd

Look up Vd: Cc1cc(C)nc(N2C[C@H]3CN(C(=O)c4c(F)cccc4-n4nccn4)C[C@H]3C2)n1 0.7 L/kg

###

Test: Oral bioavailability in Sprague-Dawley rat at 10 mg/kg
Format: ADME, organism-based
Details: in vivo
Please enter yes (1) where bioavailability is greater than or equal to 20%, and no (0) where it is lower.

As a guide, the following entries are already answered.
>  <compound>
Cc1cc(C)nc(N2C[C@H]3CN(C(=O)c4ccccc4-n4nccn4)C[C@H]3C2)n1

>  <assignedLabel>
no (0)

$$$$
>  <compound>
Cc1cc(C)nc(N2C[C@H]3CN(C(=O)c4ccccc4-c4ncn[nH]4)C[C@H]3C2)n1

>  <assignedLabel>
yes (1)

$$$$
>  <compound>
Cc1cc(C)nc(N2C[C@H]3CN(C(=O)c4cccc(F)c4-n4nccn4)C[C@H]3C2)n1

>  <assignedLabel>
yes (1)

$$$$
>  <compound>
Cc1cc(C)nc(N2C[C@H]3CN(C(=O)c4c(F)cccc4-n4nccn4)C[C@H]3C2)n1 [SELTOREXANT]

>  <assignedLabel>
yes (1)

$$$$

Check this compound for bioavailability at or above 20%: Cc1cc(C)nc(N2C[C@H]3CN(C(=O)c4ccc(F)cc4-n4nccn4)C[C@H]3C2)n1 no (0)

###

Experiment: Volume of distribution at steady state in Balb/c mouse at 10 mg/kg, po and 1 mg/kg, iv
Format: ADME, organism-based
Settings: in vivo, read-out: Vdss
parameter: Vd (L/kg)
# output: bare number, implied unit L/kg

Look up Vd: Cc1cc(C)nc(N2C[C@H]3CN(C(=O)c4c(F)cccc4-n4nccn4)C[C@H]3C2)n1 0.6

###

Test: Oral bioavailability in Balb/c mouse at 10 mg/kg
Assay type: ADME, organism-based
Conditions: in vivo
parameter: bioavailability
The reply should read as a number followed by its unit.

Look up bioavailability: Cc1cc(C)nc(N2C[C@H]3CN(C(=O)c4c(F)cccc4-n4nccn4)C[C@H]3C2)n1 16%

###

As a worked illustration, we turn to IC50 data collected for UniProt Q12809.
Sequence (Q12809 whole entry): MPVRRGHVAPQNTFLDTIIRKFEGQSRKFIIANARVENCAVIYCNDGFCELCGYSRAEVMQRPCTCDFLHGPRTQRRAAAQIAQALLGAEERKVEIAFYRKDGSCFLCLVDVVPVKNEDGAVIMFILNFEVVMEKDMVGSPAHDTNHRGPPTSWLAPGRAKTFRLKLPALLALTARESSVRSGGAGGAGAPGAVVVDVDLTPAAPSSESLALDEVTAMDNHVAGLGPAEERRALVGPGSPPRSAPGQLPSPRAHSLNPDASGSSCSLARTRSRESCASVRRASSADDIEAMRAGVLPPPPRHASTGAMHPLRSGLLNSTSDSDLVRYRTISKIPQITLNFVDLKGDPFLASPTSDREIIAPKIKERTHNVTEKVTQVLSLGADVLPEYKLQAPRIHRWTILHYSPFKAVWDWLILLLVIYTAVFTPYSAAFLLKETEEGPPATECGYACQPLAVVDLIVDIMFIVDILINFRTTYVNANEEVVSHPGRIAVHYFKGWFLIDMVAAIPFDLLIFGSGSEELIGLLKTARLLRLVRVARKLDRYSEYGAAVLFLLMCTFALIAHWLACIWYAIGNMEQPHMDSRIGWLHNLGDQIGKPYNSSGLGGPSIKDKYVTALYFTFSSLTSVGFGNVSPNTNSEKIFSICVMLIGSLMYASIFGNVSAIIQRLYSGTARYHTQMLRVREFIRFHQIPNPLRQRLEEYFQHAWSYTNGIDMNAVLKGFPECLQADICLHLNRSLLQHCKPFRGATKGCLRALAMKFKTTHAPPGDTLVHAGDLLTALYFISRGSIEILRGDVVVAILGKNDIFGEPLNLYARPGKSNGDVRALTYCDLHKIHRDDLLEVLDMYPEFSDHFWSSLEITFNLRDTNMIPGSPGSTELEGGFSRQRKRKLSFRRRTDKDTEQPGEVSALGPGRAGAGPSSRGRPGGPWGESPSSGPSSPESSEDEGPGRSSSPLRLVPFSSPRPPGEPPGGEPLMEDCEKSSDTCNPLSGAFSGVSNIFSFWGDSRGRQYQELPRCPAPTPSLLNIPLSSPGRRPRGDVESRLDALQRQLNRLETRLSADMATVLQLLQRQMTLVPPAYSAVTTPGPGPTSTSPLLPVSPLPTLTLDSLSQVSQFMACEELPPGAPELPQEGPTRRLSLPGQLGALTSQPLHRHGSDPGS
# output: bare number, implied unit µM

>  <structureSmiles>
COc1ccc(-n2nccn2)c(C(=O)N2C[C@@H]3CN(c4nc(C)cc(C)n4)C[C@@H]3C2)c1

>  <IC50 / µM>
8.1

$$$$
>  <structureSmiles>
Cc1cc(C)nc(N2C[C@H]3CN(C(=O)c4c(C)cccc4-n4nccn4)C[C@H]3C2)n1

>  <IC50 / µM>
6.9

$$$$

Lab note: need IC50 for Cc1cc(C)nc(N2C[C@H]3CN(C(=O)c4cccc(F)c4-n4nccn4)C[C@H]3C2)n1 on UniProt Q12809, anyone have it? 6

###

Assay: Half life in beagle dog at 1 mg/kg, iv
Assay type: ADME, organism-based, Canis lupus familiaris
Details: in vivo
parameter: half-life
The reply should read as a number followed by its unit.

Look up half-life: Cc1cc(C)nc(N2C[C@H]3CN(C(=O)c4c(F)cccc4-n4nccn4)C[C@H]3C2)n1 1.1 h
